# experiment_summary: Acute toxicity test (LD50), Litchfield-Wilcoxon method
# run_conditions: mouse, in vivo, ip, male ICR mice, 14 days
I'd appreciate it if you could supply LD50 at 336 h values for the items below.

// LD50 at 336 h value for COc1nc(C)c(C)cc1NC(=S)N1CCN(c2cc(C)cc(C)c2)CC1 [Example 22] : > 2000 mg/kg

// LD50 at 336 h value for COc1cc(C)c(C)cc1NC(=O)N1CCN(c2cc(-c3ccccc3)ccc2OC)CC1 [Example 186] : > 2000 mg/kg

// LD50 at 336 h value for CCCc1nc(OC)c(NC(=S)N2CCN(c3cccc(O)c3)CC2)cc1C [Example 28] : > 2000 mg/kg

---

# Test system: SKOV-3 (human ovarian)
# experiment_summary: SRB assay, in vitro antitumor effect against SKOV-3
# Assay type: cell-based
# run_conditions: Homo sapiens; SK-OV-3, 48 hours; read-out: ED50 (the source's name)
The label is y for IC50 below 0.5 µg/mL and n for IC50 equal to or exceeding 0.5 µg/mL.

Would you kindly verify if IC50 of `COc1nc(C)c(C(C)=O)cc1NC(=O)N1CCN(c2cc(C)cc(C)c2)CC1` is strictly less than 0.5 µg/mL?
n

Would you kindly verify if IC50 of `CCc1nc(OC)c(NC(=O)N2CCN(c3cccc(O)c3)CC2)cc1C` is strictly less than 0.5 µg/mL?
y

Would you kindly verify if IC50 of `COc1cc(C)c(C)cc1NC(=S)N1CCN(c2ccccc2F)CC1` is strictly less than 0.5 µg/mL?
n

Would you kindly verify if IC50 of COc1cc(OC)cc(N2CCN(C(=O)Nc3cc(C(C)O)c(C)nc3OC)CC2)c1 (stereo not shown) is strictly less than 0.5 µg/mL?
y

Would you kindly verify if IC50 of `COc1cc(C)c(C)cc1NC(=O)N1CCN(c2cc(C)cc(C)c2)CC1` is strictly less than 0.5 µg/mL?
y

Would you kindly verify if IC50 of `COc1nc2ccccc2cc1NC(=S)N1CCN(c2cc(C)cc(C)c2)CC1` is strictly less than 0.5 µg/mL?
n

Would you kindly verify if IC50 of `COc1nc2ccccc2cc1NC(=O)N1CCN(c2cc(C)cc(C)c2)CC1` is strictly less than 0.5 µg/mL?
y

Would you kindly verify if IC50 of `C=Cc1cc(NC(=O)N2CCN(c3cc(F)cc(F)c3)CC2)c(OC)nc1C` is strictly less than 0.5 µg/mL?
y

Would you kindly verify if IC50 of `COc1ccc(C)c(N2CCN(C(=O)N(C)c3cc(C)c(C)nc3OC)CC2)c1` is strictly less than 0.5 µg/mL?
y

Would you kindly verify if IC50 of `COc1cc(OC)cc(N2CCN(C(=O)N(c3cc4ccccc4nc3OC)C(C)C)CC2)c1` is strictly less than 0.5 µg/mL?
n

Would you kindly verify if IC50 of COc1nc(C)c(C(C)O)cc1NC(=S)N1CCN(c2cc(C)cc(C)c2)CC1 (stereo not shown) is strictly less than 0.5 µg/mL?
n

Would you kindly verify if IC50 of `COc1cc(C)c(C)cc1NC(=S)N1CCN(c2cccc(O)c2)CC1` is strictly less than 0.5 µg/mL?
n

Would you kindly verify if IC50 of `CCCc1cc(NC(=O)N2CCN(c3cc(C)cc(C)c3)CC2)c(OC)nc1C` is strictly less than 0.5 µg/mL?
y

Would you kindly verify if IC50 of `COc1nc(C)c(C)cc1NC(=S)N1CCN(c2cc(C)cc(C)c2)CC1` is strictly less than 0.5 µg/mL?
y

Would you kindly verify if IC50 of `COc1nc(C)c(C)cc1NC(=S)N1CCN(c2cc(F)cc(F)c2)CC1` is strictly less than 0.5 µg/mL?
y

Would you kindly verify if IC50 of `CCCc1nc(OC)c(N(C)C(=O)N2CCN(c3cc(OC)cc(OC)c3)CC2)cc1C` is strictly less than 0.5 µg/mL?
y

Numbers sourced from patent US6028195A.
